- assay_target: Diacylglycerol O-acyltransferase 1 (Homo sapiens, UniProt O75907)
- Sequence (O75907 whole entry): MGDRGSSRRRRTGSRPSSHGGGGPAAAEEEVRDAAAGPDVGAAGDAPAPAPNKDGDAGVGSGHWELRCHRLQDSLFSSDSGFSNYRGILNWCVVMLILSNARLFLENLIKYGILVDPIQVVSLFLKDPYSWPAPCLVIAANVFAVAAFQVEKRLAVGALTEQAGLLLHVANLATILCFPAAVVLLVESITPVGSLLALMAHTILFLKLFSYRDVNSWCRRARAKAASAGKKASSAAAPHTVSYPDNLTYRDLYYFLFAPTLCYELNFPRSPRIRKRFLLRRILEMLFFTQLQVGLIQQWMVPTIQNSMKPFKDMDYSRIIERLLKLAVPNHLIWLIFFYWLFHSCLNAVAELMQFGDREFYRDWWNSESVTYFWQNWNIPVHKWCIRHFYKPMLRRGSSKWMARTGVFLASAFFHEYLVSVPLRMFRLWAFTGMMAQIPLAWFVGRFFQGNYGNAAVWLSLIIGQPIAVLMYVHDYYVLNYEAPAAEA
pIC50: −log10 of the molar value.
quantity_name: pIC50

{"molecular_string": "CC(C)=CCc1c(O)ccc2c1O/C(=C\\c1ccc(O)cc1)C2=O", "quantity_name": "pIC50", "recorded_value": 4.45}

====

Measured IC50, listed per entry.
- assay_target: Acetylcholinesterase (Homo sapiens, UniProt P22303)
- Sequence (P22303 whole entry): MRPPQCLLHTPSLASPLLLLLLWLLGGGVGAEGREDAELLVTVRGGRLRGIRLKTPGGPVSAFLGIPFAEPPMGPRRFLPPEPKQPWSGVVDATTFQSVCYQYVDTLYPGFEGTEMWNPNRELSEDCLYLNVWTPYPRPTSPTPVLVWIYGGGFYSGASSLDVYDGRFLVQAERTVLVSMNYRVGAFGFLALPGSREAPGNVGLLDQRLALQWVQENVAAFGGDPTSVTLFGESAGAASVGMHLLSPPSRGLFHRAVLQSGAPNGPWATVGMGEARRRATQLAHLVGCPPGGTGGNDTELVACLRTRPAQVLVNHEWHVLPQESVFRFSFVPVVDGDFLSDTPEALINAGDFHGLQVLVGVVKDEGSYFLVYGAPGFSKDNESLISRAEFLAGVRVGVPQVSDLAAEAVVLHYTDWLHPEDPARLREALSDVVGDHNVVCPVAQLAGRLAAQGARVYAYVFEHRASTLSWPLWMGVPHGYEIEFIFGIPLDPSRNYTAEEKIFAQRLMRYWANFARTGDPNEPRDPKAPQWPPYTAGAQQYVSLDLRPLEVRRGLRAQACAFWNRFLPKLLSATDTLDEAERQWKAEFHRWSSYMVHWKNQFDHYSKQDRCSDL

{"molecular_string": "CCOc1ccc2c(c1)O/C(=C\\c1ccc(OCCN3CCCCC3)cc1)C2=O", "scale_unit": "nM", "IC50": 45}
{"molecular_string": "COc1cc(/C=C2\\Oc3cc(OCCN4CCCC4)ccc3C2=O)cc(OC)c1OC", "scale_unit": "nM", "IC50": 643}
{"molecular_string": "COc1ccc(/C=C2\\Oc3cc(OCCN4CCCCC4)ccc3C2=O)cc1", "scale_unit": "nM", "IC50": 845}
{"molecular_string": "COc1cc(/C=C2\\Oc3cc(OCCN4CCCCC4)ccc3C2=O)cc(OC)c1OC", "scale_unit": "nM", "IC50": 422}
{"molecular_string": "O=C1/C(=C/c2ccc(OCCN3CCCC3)cc2)Oc2ccccc21", "scale_unit": "nM", "IC50": 545}
{"molecular_string": "O=C1/C(=C/c2ccc(OCCN3CCCCC3)cc2)Oc2ccccc21", "scale_unit": "nM", "IC50": 348}
{"molecular_string": "COc1ccc2c(c1)O/C(=C\\c1ccc(OCCN3CCCCC3)c(Cl)c1)C2=O", "scale_unit": "nM", "IC50": 160}

Data provenance: BindingDB's records for doi:10.1021/jm3015052
